Tested on: SK-OV-3 ovarian
assayMethodText: NCI-60 one-dose screen, 48 h (100 = growth as untreated, 0 = no growth, -100 = all killed)
runParameters: 10 µM unless noted
Compounds without any hit were thinned out: in the full panel of roughly 83,000, 20% have a hit. Active and inactive are the calls of the source. The calls were made as follows: active = growth percent below 10; inactive = the rest.
assayEndpoint: growth

For orientation, consider the following solved cases.
Cc1ccccc1C1CC(=O)c2ccccc2C1C (stereo not given)	105% (inactive)
CCOC(=O)Cc1cc(Br)c(OCc2ccccc2)c(Br)c1	109% (inactive)

Field request: growth | item: O=P(O)(O)C(O)(Cc1cccnc1)P(=O)(O)O
111% (inactive)

----------
System: OVCAR-5 ovarian
assayMethodText: NCI-60 one-dose screen, 48 h (100 = growth as untreated, 0 = no growth, -100 = all killed)
runParameters: 10 µM unless noted
Compounds without any hit were thinned out: in the full panel of roughly 83,000, 20% have a hit.
Below: a set of entries, each annotated with reported growth.
Report the figure in % without appending any unit label.

A selection of reference data follows.
COc1ccc(C2=NNC(c3ccc(Oc4nc5c(c(=O)n(C)c(=O)n5C)n4C)c(OC)c3)C2)cc1 (stereo not given)	102
O=C(/C=C/c1ccccc1)c1c[nH]c2ccccc2c1=O	3.5

Which growth value is on record for O=c1c2cc(Br)cc(Br)c2nc(-c2ccc(Cl)cc2)n1/N=C\c1ccccc1F ?
64.8

Param item = Cc1csc(N/N=C/c2ccncc2)n1 ; retrieve measured growth.
112

Requested read-out: growth. Entry: CCOC(=O)c1ccc2c(c1)nc(-c1ccc(Cl)cc1)n2-c1cc(C(C)(C)C)[nH]n1
60.5

// data source = PubChem BioAssay (NCI)
